Each recorded value in this set is attributed to ChEMBL document CHEMBL3507680.

assay: Human HepG2 cell viability assay in 384 well format; assay type: toxicity, cell-based; parameters: dose 125 nL, time 70.5 hour; concentration not given beside the values; details: HepG2 cells, read-out: Inhibition
Answer each item with its documented cytotoxicity at 70.5 h.
Numbers only here, please. The scale is %.

Consider the molecule O=C(CCn1ccnc1)N1CC[C@@H](c2ccc3ccccc3c2)[C@H](O)C1 and give its recorded cytotoxicity at 70.5 h.
4.4

Consider the molecule CSCCC(=O)N1C[C@H](Nc2ccnc(C)n2)[C@@H](C(C)C)C1 and give its recorded cytotoxicity at 70.5 h.
-23.4

Consider the molecule Cc1nc(CN2CCc3c(nc(C4CC4)n3C)C2)nc2ccccc12 and give its recorded cytotoxicity at 70.5 h.
-5.35

Consider the molecule CC1COCCN1C(=O)c1ccc(=O)n(Cc2ccccc2)n1 (stereo not given) and give its recorded cytotoxicity at 70.5 h.
-4.29

Consider the molecule CS(=O)(=O)NCC1Cc2ccccc2O1 (stereo not given) and give its recorded cytotoxicity at 70.5 h.
-0.512

Consider the molecule COCCNC(=O)c1cc(C(C)C)nc(N2CCCC2)n1 and give its recorded cytotoxicity at 70.5 h.
-9.32

Consider the molecule CC(=O)N1CCOC2(CCCN(C(=O)CCN3CCCCC3)C2)C1 (stereo not given) and give its recorded cytotoxicity at 70.5 h.
-1.24

Consider the molecule Cn1cnc(-c2cc(C(=O)N3CCOCC3)c3ccccn23)c1 and give its recorded cytotoxicity at 70.5 h.
-31.4

Consider the molecule COc1ccc(CN2C[C@@H]3CCCO[C@@H]3[C@H](NS(C)(=O)=O)C2)cc1 and give its recorded cytotoxicity at 70.5 h.
-9.16

Consider the molecule CCCOc1cc(C)ccc1NC(=O)NCCC(=O)N(C)C and give its recorded cytotoxicity at 70.5 h.
-2.29

Consider the molecule CC[C@H]1COCCN1C(=O)c1cnc(N2CCN(C)CC2)nc1C and give its recorded cytotoxicity at 70.5 h.
-8.1

Consider the molecule CC(=O)Nc1nc(C(=O)N2CCCCC2Cn2cccn2)cs1 (stereo not given) and give its recorded cytotoxicity at 70.5 h.
-0.594

Consider the molecule CCOCC1CC2(CCN(C(=O)C3CCSCC3)CC2)CO1 (stereo not given) and give its recorded cytotoxicity at 70.5 h.
8.92

Consider the molecule CNC(=O)c1cc2c(nc1NCC(C)C)CCN(C)CC2 and give its recorded cytotoxicity at 70.5 h.
0.255

Consider the molecule Cc1nccn1C1CCCN(C(=O)c2cc3ccccc3[nH]2)C1 (stereo not given) and give its recorded cytotoxicity at 70.5 h.
42.8

Consider the molecule CC(C)n1nc2c(cc1=O)CN(CCOc1cccc(C#N)c1)CC2 and give its recorded cytotoxicity at 70.5 h.
-8.86

Consider the molecule Cc1ccc(S(=O)(=O)N2C[C@H]3C[C@H](NC(=O)c4cc[nH]n4)[C@H]3C2)cc1 and give its recorded cytotoxicity at 70.5 h.
61.6

Consider the molecule NC(=O)c1ccc2c(c1)nc1n2CCN(Cc2cccnc2)C1 and give its recorded cytotoxicity at 70.5 h.
-1.68

Consider the molecule CCS(=O)(=O)c1ccc2oc([C@H]3CCN(Cc4cccnc4)C3)nc2c1 and give its recorded cytotoxicity at 70.5 h.
9.25

Consider the molecule O=C(c1ccccn1)N1CCC(Oc2ncccc2Cl)CC1 and give its recorded cytotoxicity at 70.5 h.
-2.05

Consider the molecule O=C(CNC(=O)N1CCN(c2cccc(Cl)c2)CC1)Nc1ccccn1 and give its recorded cytotoxicity at 70.5 h.
-9.74

Consider the molecule Cc1nn(C)c(N(C)C)c1CNC(C)COc1cccc(F)c1 (stereo not given) and give its recorded cytotoxicity at 70.5 h.
23.8

Consider the molecule O=C(c1ccnnc1)N1CCC2(CC1)CCN(C(=O)c1cccnc1)C2 and give its recorded cytotoxicity at 70.5 h.
-0.196

Consider the molecule CN(C)CC(=O)N1CCc2cccc(S(=O)(=O)N3CCOCC3)c2C1 and give its recorded cytotoxicity at 70.5 h.
0.694

Consider the molecule CC(C)c1cnc(N2C[C@H](CO)C[C@H](CN3CCOCC3)C2)nc1 and give its recorded cytotoxicity at 70.5 h.
-4.2
